# SYSTEM TESTED: T1, FZD4 cysteine-rich domain (CRD), MYC-tagged and GPI-anchored on CHO cells (human, UniProt Q9ULV1 42-167, GPI anchor)
# T1 construct: also called FZD4 CRD; CHO-myc-FZDGPI; not shown: MYC tag and GPI anchor signal
# T1 sequence: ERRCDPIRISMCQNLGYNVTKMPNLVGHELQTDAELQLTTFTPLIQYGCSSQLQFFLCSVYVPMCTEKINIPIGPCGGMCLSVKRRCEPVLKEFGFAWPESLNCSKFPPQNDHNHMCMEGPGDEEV
# ASSAY SUMMARY: flow cytometry, CHO-CRD cells;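 note: flow cytometry of Fab binding to CHO cells overexpressing a Frizzled CRD, with binding defined as median fluorescence over twice that of CHO cells lacking any Frizzled CRD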
READOUT KIND: median fluorescence
Number only, please.

Take a look at these entries with their results.
- BINDER: "Fab-2913 (Fab, V domains shown, Fab; also called Fv-2913) VH: EVQLVESGGGLVQPGGSLRLSCAASGFNISYSSIHWVRQAPGKGLEWVASIYPYSSSTSYADSVKGRFTISADTSKNTAYLQMNSLRAEDTAVYYCARYGYYGLDYWGQGTLVTVSS VL: DIQMTQSPSSLSASVGDRVTITCRASQSVSSAVAWYQQKPGKAPKLLIYSASSLYSGVPSRFSGSRSGTDFTLTISSLQPEDFATYYCQQWGVSHYLFTFGQGTKVEIK"
  MEASURED NUMBER: 5.57
- BINDER: "Fab-2910 (Fab, V domains shown, Fab) VH: EVQLVESGGGLVQPGGSLRLSCAASGFNISYSYMHWVRQAPGKGLEWVASIYSSSSSTSYADSVKGRFTISADTSKNTAYLQMNSLRAEDTAVYYCARGAMDYWGQGTLVTVSS VL: DIQMTQSPSSLSASVGDRVTITCRASQSVSSAVAWYQQKPGKAPKLLIYSASSLYSGVPSRFSGSRSGTDFTLTISSLQPEDFATYYCQQWYGSHLITFGQGTKVEIK"
  MEASURED NUMBER: 5
- BINDER: "Fab-2920 (Fab, V domains shown, Fab) VH: EVQLVESGGGLVQPGGSLRLSCAASGFNISYYYIHWVRQAPGKGLEWVASIYPSSGSTSYADSVKGRFTISADTSKNTAYLQMNSLRAEDTAVYYCARGGMDYWGQGTLVTVSS VL: DIQMTQSPSSLSASVGDRVTITCRASQSVSSAVAWYQQKPGKAPKLLIYSASSLYSGVPSRFSGSRSGTDFTLTISSLQPEDFATYYCQQWFAGALITFGQGTKVEIK"
  MEASURED NUMBER: 4.22

Now let's try a different one.
q: May I ask what median fluorescence has been recorded for Fab-2901 (Fab, V domains shown, Fab; also called Fv-2901) VH: EVQLVESGGGLVQPGGSLRLSCAASGFNISYSYMHWVRQAPGKGLEWVASIYSYSSYTYYADSVKGRFTISADTSKNTAYLQMNSLRAEDTAVYYCARSWYYWSPSSGMDYWGQGTLVTVSS VL: DIQMTQSPSSLSASVGDRVTITCRASQSVSSAVAWYQQKPGKAPKLLIYSASSLYSGVPSRFSGSRSGTDFTLTISSLQPEDFATYYCQQGGFLITFGQGTKVEIK ?
a: 5.09
